Let's look at some molecules and their measured melting point.

In [3]: df
Out[3]:
                                   molecule       result
0  OC(Nc1cccc(C(F)(F)F)c1)c1cccnc1 (stereo not drawn)       102 °C
1                 OCCCCc1ccc(OCc2ccccc2)cc1  59 to 60 °C

Suppose we examine the molecule COC(=O)c1ccc(C(=O)NS(=O)(=O)c2ccc(CCNC(=O)Cc3ccc(OC)c(OC)c3)cc2)cn1 ; what melting point value has been reported?
164 to 169 °C

* * *

Let's look at some compounds and their measured melting point.

Known results for compounds:
>>> df
                                   compound         result
0   CC1(C)C(=O)Nc2cc3[nH]c(-c4cccs4)nc3cc21  332 to 336 °C
1  O=C(O)c1cccc(-c2ccn(-c3ccc(OC(F)F)cc3)n2)c1  182 to 183 °C
2  CC(=O)NC(=S)NC1CC2c3cccc4[nH]cc(c34)CC2N(C)C1 (stereo not drawn)  240 to 242 °C
3  CN1C2CCC1CN(C(=O)c1ccc(-c3ccc(N)cc3)o1)C2  190 to 191 °C
4  CC1COc2c(-c3ccccc3)ccc3c(=O)c(C(=O)O)cn1c23 (stereo not drawn)  295 to 296 °C

Suppose we examine the compound CCOC(=O)C1=CC(OCC)(C(C)C)N(c2ccc(Cl)cc2Cl)N1 (stereo not drawn) ; what melting point value has been reported?
105 to 110 °C

Suppose we examine the compound COc1ccc(Br)c(COc2ccc3ccc(OC)cc3c2Cl)c1 ; what melting point value has been reported?
126 to 127 °C

Suppose we examine the compound COc1ccc(CN2CCN(CC(=O)N3CC=C(c4cccc(C(F)(F)F)c4)n4ncc(C#N)c43)CC2)cc1 ; what melting point value has been reported?
151 to 153 °C

Suppose we examine the compound Cc1cccc(C)c1-c1cc(O)c(SCc2ccccc2)c(=O)o1 ; what melting point value has been reported?
140 to 143 °C

Suppose we examine the compound C=CCOc1cc(CNc2nc(C)nc(C)c2Cl)ccc1O ; what melting point value has been reported?
124 to 126 °C

Suppose we examine the compound CC(=O)Cc1ccc(OCC(O)CN2CCN(c3ccccc3)CC2)cc1 (stereo not drawn) ; what melting point value has been reported?
121 to 122 °C

Suppose we examine the compound CC(=O)c1cc(F)ccc1Oc1nc2ccc(-n3cc(-c4ccccc4)nn3)cc2cc1Cc1ccccc1 ; what melting point value has been reported?
183 °C

Suppose we examine the compound COc1cc(C=O)cc(OC)c1Cl ; what melting point value has been reported?
112 to 113 °C

Suppose we examine the compound O=c1nc(NCN2CCOCC2)c(F)cn1CN1CCOCC1 ; what melting point value has been reported?
156 to 158 °C
